Values from patent US8501238B2

target: HCV polymerase 1B (Δ21 NS5B) (Hepatitis C virus genotype 1b, UniProt P26663); construct: 20 to 50nM Δ21 NS5B; assay: biochemical
Sequence (P26663 2420-2989, stated change not applied): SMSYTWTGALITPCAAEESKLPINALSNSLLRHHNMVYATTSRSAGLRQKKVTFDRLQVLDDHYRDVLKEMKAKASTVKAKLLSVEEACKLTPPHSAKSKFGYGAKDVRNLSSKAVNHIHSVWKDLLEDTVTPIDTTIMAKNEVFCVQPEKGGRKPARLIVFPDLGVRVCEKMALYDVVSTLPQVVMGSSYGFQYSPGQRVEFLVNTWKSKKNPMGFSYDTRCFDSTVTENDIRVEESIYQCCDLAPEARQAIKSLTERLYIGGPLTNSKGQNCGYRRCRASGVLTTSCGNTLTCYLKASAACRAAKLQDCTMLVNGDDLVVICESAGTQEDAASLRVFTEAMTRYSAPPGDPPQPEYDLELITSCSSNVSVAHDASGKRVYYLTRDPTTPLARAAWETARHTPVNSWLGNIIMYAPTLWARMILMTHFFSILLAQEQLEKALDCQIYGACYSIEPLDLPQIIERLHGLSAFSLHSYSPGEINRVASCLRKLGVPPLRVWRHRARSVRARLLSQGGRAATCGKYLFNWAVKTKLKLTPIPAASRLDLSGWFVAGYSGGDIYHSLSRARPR
Reported IC50 by item:

{"sampleSmiles": "COc1c(-c2ccc3c(c2)CCN(NS(C)(=O)=O)C3)cc(-n2ccc(=O)[nH]c2=O)cc1C(C)(C)C", "IC50": "100 to 1000 nM"}
{"sampleSmiles": "COc1c(-c2ccc3cc(NS(C)(=O)=O)ccc3c2)cc(-n2ccc(=O)[nH]c2=O)cc1-c1ccc(C)o1", "IC50": "10 to 100 nM"}
{"sampleSmiles": "COc1c(-c2ccc3cc(NS(C)(=O)=O)ccc3c2)cc(-n2ccc(=O)[nH]c2=O)cc1S(C)(=O)=O", "IC50": "10 to 100 nM"}
{"sampleSmiles": "COc1c(-c2ccc3cc(NS(C)(=O)=O)ccc3c2)cc(-n2ccc(=O)[nH]c2=O)cc1C(C)(C)C", "IC50": "< 10 nM"}
{"sampleSmiles": "COc1c(-c2ccc3nc(NS(C)(=O)=O)cnc3c2)cc(-n2ccc(=O)[nH]c2=O)cc1C(C)(C)C", "IC50": "10 to 100 nM"}
{"sampleSmiles": "CCCNc1nc2ccc(-c3cc(-n4ccc(=O)[nH]c4=O)cc(C(C)(C)C)c3OC)cc2s1", "IC50": "100 to 1000 nM"}
{"sampleSmiles": "COc1c(-c2ccc3nc(N)sc3c2)cc(-n2ccc(=O)[nH]c2=O)cc1C(C)(C)C", "IC50": "10 to 100 nM"}
